# Test system: L1210 leukemia ip in BDF1 mice, survival T/C
# ASSAY_NOTES: NCI In Vivo Anticancer Drug Screen. Data for tumor model L1210 Leukemia (intraperitoneal) in B6D2F1 (BDF1) mice
# APPLIED_CONDITIONS: endpoint: mean survival time; dose: 50.0 mg/kg/injection; schedule: Q01DX009 (ip); vehicle: saline; higher = longer survival
Toxic doses and inconclusive results are not listed.
Kindly state T/C for each of the entries shown.

State its T/C on L1210 leukemia ip in BDF1 mice, survival T/C: `CN(C)CCC(=O)/C=C\c1ccccc1` 88 % of control

Next entry: `N#Cc1cnn(C(N)=S)c1N` 97 % of control

Next entry: `CCS(=O)(=O)N(CC(=O)O)Cc1ccccc1` 100 % of control

Next entry: `O=C(O)c1cc(Cl)c(Cl)cc1Cl` 104 % of control

----------
Kindly state T/C for each of the entries shown.
# Tested on: L1210 leukemia ip in BDF1 mice, survival T/C
# ASSAY_NOTES: NCI In Vivo Anticancer Drug Screen. Data for tumor model L1210 Leukemia (intraperitoneal) in B6D2F1 (BDF1) mice
# APPLIED_CONDITIONS: endpoint: mean survival time; dose: 200.0 mg/kg/injection; schedule: Q01DX001 (ip); vehicle: saline with Tween-80; higher = longer survival
Inconclusive results and toxic doses are left out.

Bench note: what T/C did CCCCCCCCCCC(C)CCCCCCCC (stereo unspecified) show? 100 % of control

Next entry: `NC(=O)c1cc(I)cc(I)c1N` 97 % of control

Next entry: `Cc1cc(C)cc(N=Cc2ccccc2)c1` 95 % of control

Next entry: CC(=O)OC1(c2ccccc2)OC(=O)C(C)(C)c2ccccc21 (stereo unspecified) 91 % of control

Next entry: COc1cccc(C(=O)c2cc(O)c3c(c2O)CC(C(C)=O)CC3=O)c1C#N (stereo unspecified) 98 % of control

Next entry: CC(=O)N(Cc1ccccc1)C1C(OCc2ccccc2)OC(CO)C(O)C1OCc1ccccc1 (stereo unspecified) 96 % of control

----------
# Tested on: L1210 leukemia ip in BDF1 mice, survival T/C
# ASSAY_NOTES: NCI In Vivo Anticancer Drug Screen. Data for tumor model L1210 Leukemia (intraperitoneal) in B6D2F1 (BDF1) mice
# APPLIED_CONDITIONS: endpoint: mean survival time; dose: 200.0 mg/kg/injection; schedule: Q01DX001 (ip); vehicle: carboxymethylcellulose (CMC); higher = longer survival
Toxic doses and inconclusive results are not listed.
Kindly state T/C for each of the entries shown.

Bench note: what T/C did `C/C=C\CCCCCCC` show? 95 % of control

Next entry: `Cc1ccc(C)c([N+](=O)[O-])c1C(=O)O` 96 % of control

Next entry: CCOC(=O)C(C)(N)CCOCc1ccccc1 (stereo not drawn) 100 % of control

Next entry: CN(CC(=O)C(C(N)=O)c1ccccc1)c1ccccc1 (stereo not drawn) 93 % of control

Next entry: O=C(CC(C(=O)Nc1ccccc1)C(O)(c1ccccc1)c1ccccc1)Nc1ccccc1 (stereo not drawn) 91 % of control

Next entry: `O=C(O)CNCCN1CC(=O)N(Cc2ccccc2)C1=S` 103 % of control

Next entry: `CC(=O)c1ccc2c(c1)C(=O)c1ccccc1-2` 93 % of control

Next entry: `Fc1cc(N(CCCl)CCCl)ccc1CN1CCCN(Cc2ccc(N(CCCl)CCCl)cc2F)C1c1ccc(N(CCCl)CCCl)cc1F` 102 % of control
